The measurements presented in this section are drawn from the nanobody polyreactivity screen of Harvey et al. (2022).

# Assay Text: yeast display, Sf9 membrane polyspecificity reagent, FACS + sequencing; frameworks hold sequencing errors
Quantity Measured: polyreactivity (PSR sort gate)

| Sequence Content | Quantity Measured | Result |
| --- | --- | --- |
| QVQLVESGGGIVQAGGSLRLSSAASGGIFPYYVMGRYRQAPGKERELVAAINSGGTTYYADSVKGRFTISRDNAKNTVYLQMNSLKPEDTAVYYCAAEAYKHGVWDYDYWGQGTQVTVSS | polyreactivity (PSR sort gate) | low polyreactivity |
| QVQLVESGGGLVQAGGSLRLSCAASGRIFAAYAMGWYRQAPGKERELVDAISSTGGTTYYADSVKGRFTISRDNAKNTVYLQMNSLKPEDTAVYYCATTVIVTKGSWHYSYDYWGQGTQVTVSS | polyreactivity (PSR sort gate) | low polyreactivity |
| QVQLVKSGGGLVQAGGSLRLSCAASGSTFYNAMGWYRQAPGKEREWVAAISIGGSTYYADSVKGRFTISRDNAKNTVYLQMNSLKPEDTAVYYCNSDLYYWLRYYDRNDYWGQGTQVTVSS | polyreactivity (PSR sort gate) | low polyreactivity |
| QVKLVESGGGLVQAGGSLRLSCAASGFTFGRYAMGWYRQAPGKERELVAAITRRGGSTYYADSVKGRFTISRDNAKNTVYLQMNSLKPEDTAVYYCNKVKQTRTDHDYWGQGTQVTVSS | polyreactivity (PSR sort gate) | high polyreactivity |
| QVQLVESGGGLVQAGGSLRLSCAASGFTLQSNAMGWYRQAPGKERELVAAISFRGGSTYYADSVKGRFTISRDNAKNTVYLQMNSLKPEDTAVYYCAAVQVHLREYDYWGQGSQVTVSS | polyreactivity (PSR sort gate) | low polyreactivity |
| QVQLVESGGGLVQAGGSLRLSCAASGRIFSYYAMGWYRQAPRKERELVAGINWRGGRTYYADTVKGRFTISRDNAKITGYLQMNSLKPEETAVYYCAGDHPETPYDYWGQGTQVTVSS | polyreactivity (PSR sort gate) | high polyreactivity |
| QVQLVESGGGLVQAGGSLRVSCAASGRTFGPYAMGWYRQAPGKERELVAAINSGDRTYYADSVKGRFTISRDNAKNTVYLQMNSLKQEDTAVYYCNARSRRPDDYWGQGTQVTVSS | polyreactivity (PSR sort gate) | low polyreactivity |
| QVQLVESGGGLVQAGGSLRLSCAASGFIIAYYAMGWDRQAPGKERELVAAINGGGGSRSYADSVKGRFTISRDNAKNTVYLQMNSLKPEDTAVFYCAADGSDDEENDYWGQGTQVTVSS | polyreactivity (PSR sort gate) | high polyreactivity |
| QVQLVESGGGLVQAGGSLRLSCAASGLIFHPYTMGWYRQAPGKERELVAAITSTGGSTYYADSVKGRFTISRDNAKNTVYLQMNSLKPEDTAVYYCATDYGYYDYWGQGTQVTVSS | polyreactivity (PSR sort gate) | low polyreactivity |
| QVQLVESGGGLVQAGGSLRLSCAASGFTYSTNAMGWYRQAPGTERELVAAISGSGGSTYYADSVKGRFTISRDNAKNTVYLQMNSLKPEDTAVYYCAARCPYYSWGRYEYYYWGQGTQVTLSS | polyreactivity (PSR sort gate) | high polyreactivity |
| QVQLVESGGGLVQAGGSLRLSCAASGFIFGGYAMGWYIQGHGKERELVAAISSSGGSTYYADSVKGRFTISRDNAKNSVYLQMNSLKPEDTAVYYCAKVGWSRRYYYWGQGTKVTVSS | polyreactivity (PSR sort gate) | high polyreactivity |

---

# Assay Text: yeast display, Sf9 membrane polyspecificity reagent, FACS + sequencing; frameworks hold sequencing errors

| Sequence Content | polyreactivity (PSR sort gate) |
| --- | --- |
| QVQLVESGGVIVQAGGSLRLSCAASGFTFQAYAKGWYRQAPGKETELVAAITRSGGRTYYADSVKGRFTISRDNAKNTVYFQMKRLKPEDTAVYYCAKLSDSITLYGYWGQGTQVTVSS | high polyreactivity |
| QVQLVESGGGLVQAGGSLRLSCAASGSTSVYYAMGWYRQTPGKERELVAAITWDDGSTSYADSVKGRFTISRDNAKNTVYLQMNSLKPEDTAVYYCAKDYEYLGAFNYWGQGTQVTVSS | low polyreactivity |
| QVQLVESGGGLVQAGGSLRLSCAASGSIFGSYAMGWYRQAPGKERELVAGITYRGSSTYYADSVKGRFTISRDNAKNTVYLQMNSLKPEDTAVYYCAADPVFDEYDYWGQGTQVTVSS | low polyreactivity |
| QVQLVESGGGLVQAGGSLRLSCAASGFIFWKYAMGWYRPAPGKERELVAAISRSGGRTYYADSVKGRFTISRDNAKNTVYLQMNSLKPEDTAVYYCAKDSATYPYGTVGEYNYWGQGTQVTVSS | high polyreactivity |
| QVQLVESGGGLVQAGGSLRLSCAASGFIFSSHAMGWYRQAPGKERELVAAISRSGGRTYYADSVKGRFTISRDNAKNTVYLQMNSLKPEDTAVYYCAAKRWWQYYWGQGTQVTVSS | high polyreactivity |

---

# Assay Text: yeast display, Sf9 membrane polyspecificity reagent, FACS + sequencing; frameworks hold sequencing errors

| Sequence Content | polyreactivity (PSR sort gate) |
| --- | --- |
| QVQLVESGGGLVQAGGSLRLSCAASGIIFYKYAMGWYRQAPGKERELVAAITGRGGSTYYADSVKGRFTISRDNAKNTVYLRMNSLKPEDTAVYFCAASQRSGHPSYDYWGQGTQVTVSS | high polyreactivity |
| QVQLVESGGGLVQAGGSLRLSCAASGRIFRRYVMVWSRQAPGKERELVARIRIRDSNTYYADSVKGRFTISRDNAKNTVYLQMNSLKPEDTAVYYCAVVANYVYSKYDYWGQGTLVTVSS | high polyreactivity |
| QVQLVESGGGLVQAGGSLRLSCAASGSIFFSNVMGWYRQAPGKERELVAAIRWSGDSTYYADSVKRRFTISRDNAKNTVYLQMNSLKPEDTAVYYCARDVYGSVSVSGYYYWGQGTQVTVSA | low polyreactivity |
| QVQLVESGGGLVQAGGSLRLSCAASGSIFRVYAMGWYRPAPGKERELVASISRRGGSTYYADSVKGRFTISRDNEKNTVYLHMNILKPEDTAVYYCAAEFVIGVHCYDYWGQVTQVTVSS | high polyreactivity |
| QVQLVESGGGLVQAGGSLRLSCDASGFTFVYYAMGCYRQAPGKERELVAAISGRGGSTYYADSVKGRFTISRDNAKNTVYLQMNSLKPEDTAVYYCATTYSWYYVPYKTHIYYYWGQGTQVTVSS | low polyreactivity |
| QVQLVESGGGLVQAGGSLRLSCAASGVIFTFYAMGWYRQAPGKEREFVASIDWGDGSTYYADSVKGRFTISRDNAKNTVYLQMNSLKPEDTAVYYCAHDSDGYVCDTEYDYWGQGTQVTVSS | low polyreactivity |
| QVQLVESGGGLVQAGGSLRLSCAASGRILYGNVMGWYRQAPGKERELVAAIDSSGATTYYADSVKGRITISRDNAKNTVYLQMNSLKPDDTAVYYCAAEVTSFSFGGDATEYYWGQGTQVTVSS | low polyreactivity |
| QVQLVESGGGLVQAGGSLRLSCAASGSIFSTYGMGWYRQAPGKERELVAAITTSGGRTYYADSVKGRFTISRDNAKNTVYLQMKSLKPEVTAVYYCKAVRGGRYGLDYWGQGTQVNVSS | high polyreactivity |
| QVQLVESGGGLVQAGGSLRLSCAASGIIFPRYAMGWYRQAPGKERELVAAITIGGRTNYADSVKGRFTISRDNAKNTVYLQMNSLKPEDTAVYYCAAQTYVPYYEYDYWGQGTQVTVSS | low polyreactivity |
| QVQLQESGGGLEQAGGSLRLSCAASGYISEIGTMGWYRQAPGKEREFVATIVVGSTTNYADSVKGRFTISRDNAKNTVYLQPESGRYRGVLLRGWLLAVGKFNYWGQGTQETVSS | low polyreactivity |
| QVQLVESGGGLDQAGGSLRLSCAASGRTFYNNAMGWYRPAPGKERELVAAITRGGSTYYADSVKGRFTISRDNAKNTVYLPMNSLKPEDTAVYYCAADGFTRWGRYDYWGQGTQVTVSS | high polyreactivity |
| QVQLVESGGGLVHAGGSLRLSCAASGSTFWYNAMGWYRQAPGKERELVAAITWSGSRTYYSDSVKGRFTISRDNAKNTVYLQMNSLKPEDTAVYYCNRTRSFTRYDVFYGTIPAFDYWGQGTQVTVSS | high polyreactivity |
| QVQLVESGGGLVQEGGSLRLSCAASGRIFPYYAMGWYRQAPGKERELVAAITSGSRTYYADSVKGRFTISRDNAKNTVYLQMNSLKPEHTAVYYCNAVGGNSAYVYWGQGTQVTVSS | high polyreactivity |
| QVQLVESGRGLVQAGGSLRLSCASSGTILERYVMGWYRQAPGKERELVAAITISRGSTYYADSVKGRFTISRDNAKNTVYLEMTRLKPEDTAVYYCAARNRYWGQGTKVTVSS | high polyreactivity |
| QVQLVESGGGLVQAGGSLRLSCAASGSTFPLYAMGWYRQAPGKERELVAAITSGGGNTYYADSVKGRFTISRDNAKNTVYLQMNRLKPEDTAVYYCAAVGGYKSYYSYEYDYWGQGTQVTVSS | low polyreactivity |
| QVQLVESGGGLVQAGGSLRLSCAASGSTLVYNAMGWYRQAPGKERELVAAISRSGGITYYADSVKGRFTISRDNAKNTVYLQMNSLKPEDTAVYYCNAVVRTRYRPGYDYDYWGQGTQVTVSS | high polyreactivity |
| QVQLVESGGGLVQAGGSLRLSCDASGSIFFSYAMGWYRQAPGTEREFVAAINSDDASTYADSVKGRFTISRDNAKNTVYLQMNSLKPEDTAVYYCADSFLWSWYDYWGQGTQVTVSS | low polyreactivity |
| QVQLVESGGGLVEAGGRLSLSCAASGSIFHRNAMGGFRQAPGTERELVAAITYSGGGTYYADSVKGRFTISRDNAKNTVYLQMNSLKPEDTAVYYCAADYKSKYSRYIYDYWGQGPQVTVSS | low polyreactivity |
| QVQLVESGGGLVQAGGSLRLSCAASGFILDTYGMGWYRQAPGKERELVAAISQSDVSTYYADSVKGRFTISRDNAKNTVSLQMNSLKPEDTAVYYCAADRAGLRWFWQLLYDYWGQGTQVTVSS | low polyreactivity |
| QVQLVESGGGLVQAGGSLRLSCAASGFTFSYSAMGGYSQAPGKERELVAAISRSGSGTSYADSVKGRFTISRDNAKNTVYLQMTSLKPEDTAVYYCAARGGTTRYGNDYWGQGTQVTVSS | high polyreactivity |
| QVQLVESGGGLVQAGGSLRLICAASGSTFIINAMGWYRQAPGKERELVARITQRGTSTFYADSVKGRFTISRDNAKNTVYLQMNSLKPEDTAVYYCAARGSKSLGNKYDYWGQGTQVTVSS | high polyreactivity |
